test system: OVCA420 (Ovarian Carcinoma); assay: Bliss excess, mean over the matrix (fraction); higher = more synergy;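 also: after 72 h of two-drug dosing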
compounds and their reported Bliss excess
Would you mind answering with just the numeric figure?

Field: example entries. Status: answers known.
compound	system.under.test	Bliss excess
Cc1c2c(nn1C)CSCc1cc(n(C)n1)CSc1cc(c3ccccc3c1)OCCCc1c(C(=O)O)n(C)c3c-2c(Cl)ccc13 [AZD5991] + C[C@@H]1COCCN1C2=NC(=NC(=C2)C3(CC3)[S@](=N)(=O)C)C4=C5C=CNC5=NC=C4 [AZD6738] (first compound max 1 µM, 7x7, partner max 10 µM)	OVCA420 (Ovarian Carcinoma)	0.0076
COc1cccc(OCCCN)c1-c1cc(Nc2cnc(C#N)cn2)n[nH]1 [Prexasertib] + Cc1cc2ncnn2cc1Nc1ncc2c(n1)n(C1CCOCC1)c(=O)n2C [AZD7648] (first compound max 1 µM, 7x7, partner max 10 µM)	OVCA420 (Ovarian Carcinoma)	-0.0002

Task: Kindly state the measured Bliss excess obtained for CN(CCO)CC[C@H](CSc1ccccc1)Nc1ccc(S(=O)(=O)NC(=O)c2ccc(N3CCC([C@@H](O)c4ccccc4-c4ccc(Cl)cc4)CC3)cc2)cc1S(=O)(=O)C(F)(F)F [AZD4320] + Cn1cnc2c(F)c(Nc3ccc(Br)cc3Cl)c(C(=O)NOCCO)cc21 [Selumetinib] (first compound max 1 µM, 7x7, partner max 3 µM) with OVCA420 (Ovarian Carcinoma).
Output: 0.0225

The origin of these recorded values is the supplement of paper PMC11061612.
